The values you see were collected from the supplement of paper PMC10065799.

- testedOn: Jak2 (UniProt O60674)
- Sequence (O60674 whole entry, looked up): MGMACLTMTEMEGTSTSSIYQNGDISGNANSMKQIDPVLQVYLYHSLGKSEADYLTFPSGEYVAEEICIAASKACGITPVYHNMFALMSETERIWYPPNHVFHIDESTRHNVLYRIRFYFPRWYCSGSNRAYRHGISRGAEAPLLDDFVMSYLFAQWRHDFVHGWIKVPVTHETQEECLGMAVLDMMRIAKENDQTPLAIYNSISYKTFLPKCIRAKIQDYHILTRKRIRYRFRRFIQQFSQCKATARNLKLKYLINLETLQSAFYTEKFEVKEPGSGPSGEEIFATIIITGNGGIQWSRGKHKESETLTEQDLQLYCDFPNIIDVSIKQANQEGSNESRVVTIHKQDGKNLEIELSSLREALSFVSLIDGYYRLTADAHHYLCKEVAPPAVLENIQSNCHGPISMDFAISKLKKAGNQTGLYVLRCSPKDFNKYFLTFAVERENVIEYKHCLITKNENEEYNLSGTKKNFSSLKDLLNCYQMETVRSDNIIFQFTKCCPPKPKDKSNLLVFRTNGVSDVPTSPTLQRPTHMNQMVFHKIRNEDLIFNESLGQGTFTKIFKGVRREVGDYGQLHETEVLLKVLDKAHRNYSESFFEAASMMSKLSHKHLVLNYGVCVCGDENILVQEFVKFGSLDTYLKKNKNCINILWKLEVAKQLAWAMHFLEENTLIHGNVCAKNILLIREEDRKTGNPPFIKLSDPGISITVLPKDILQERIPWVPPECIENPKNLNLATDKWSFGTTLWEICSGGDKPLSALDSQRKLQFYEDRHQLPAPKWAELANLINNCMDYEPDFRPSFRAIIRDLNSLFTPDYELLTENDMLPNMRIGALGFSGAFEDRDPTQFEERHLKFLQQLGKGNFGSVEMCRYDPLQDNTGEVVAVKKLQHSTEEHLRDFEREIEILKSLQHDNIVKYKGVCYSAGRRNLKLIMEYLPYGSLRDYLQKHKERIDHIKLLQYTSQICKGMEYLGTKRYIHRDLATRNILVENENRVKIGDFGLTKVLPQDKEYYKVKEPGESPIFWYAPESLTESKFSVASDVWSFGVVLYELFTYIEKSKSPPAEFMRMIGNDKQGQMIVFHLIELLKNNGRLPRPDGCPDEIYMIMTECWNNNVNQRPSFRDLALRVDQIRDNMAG
- protocol: phosphorylation enrichment, bacterial display (enrichment ratio); higher = better substrate or ligand; peptides without Tyr show the background;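 note: 11-residue human phosphosite peptides and single-mutation variants displayed on the E. coli surface, counted by deep sequencing, each peptide's frequency after selection divided by its frequency in the unselected input library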;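 note: frequency after pTyr selection over input frequency; kinase dosed for 20-30% of maximal phosphorylation in three min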
Please provide measured phosphorylation enrichment for the entries that follow.
Keep it simple and answer with nothing but the number.

-- ask Consider the sequence PKAWNYELPAT [PROM1_Y34] and give its measured phosphorylation enrichment.
-- reply 0.894

-- ask Consider the sequence FKNGDYSEVMK [LCT_Y1638_N1639S] and give its measured phosphorylation enrichment.
-- reply 0.686

-- ask Consider the sequence LKGQVYILGLE [ASS1_Y359_R363L] and give its measured phosphorylation enrichment.
-- reply 1.23

-- ask Consider the sequence AAVDEYLEFRR [FAM221A_Y17_YF] and give its measured phosphorylation enrichment.
-- reply 0.756

-- ask Consider the sequence KDHLDYKYQPR [SOX9_Y172_P170L] and give its measured phosphorylation enrichment.
-- reply 0.452

-- ask Consider the sequence SREDIYKRNIE [PDE4DIP_Y45] and give its measured phosphorylation enrichment.
-- reply 0.7

-- ask Consider the sequence CEQELYSQLVF [WAS_Y102_W97C_YF] and give its measured phosphorylation enrichment.
-- reply 1.24

-- ask Consider the sequence SSYSGYIMMPN [LEF1_Y114] and give its measured phosphorylation enrichment.
-- reply 5.39

-- ask Consider the sequence LFLACYCIGGG [UBD_Y161] and give its measured phosphorylation enrichment.
-- reply 1.38

-- ask Consider the sequence TEDELYQLSLQ [RASGRP2_Y378] and give its measured phosphorylation enrichment.
-- reply 1.04

-- ask Consider the sequence NHFKRYNLCAE [PTEN_Y68_I67R_YF] and give its measured phosphorylation enrichment.
-- reply 0.59

-- ask Consider the sequence STSKTYVISRT [RBBP6_Y87] and give its measured phosphorylation enrichment.
-- reply 0.527

-- ask Consider the sequence PIYEGYGLPHA [ACTA1_Y171_A172G] and give its measured phosphorylation enrichment.
-- reply 0.833

-- ask Consider the sequence SASQEYHIVKK [PDZD2_Y557] and give its measured phosphorylation enrichment.
-- reply 0.572
